system: MDA-MB-435; assay: NCI tumour cell line growth inhibition, 48 h
OUTCOME MEASURE: TGI (µM)
Give bare numbers, in µM.

>>> df
                                   compound  value_unit  experimental_value
0  COc1cc2c3c(n(C)c(=O)c2cc1OC)-c1cc2c(cc1/C3=C\CCN)OCO2          µM                9.56
1  COc1cc2c(c(OC)c1OC)-c1ccc(OC)c(=O)cc1C(NC(=O)c1ccc(N=[N+]=[N-])cc1)CC2 (configuration not stated)          µM              0.0473
2  Cc1cc(N(CCOS(C)(=O)=O)CCOS(C)(=O)=O)ccc1C=O          µM                28.8

Alright, here's another compound for you.
Value sought: TGI, system MDA-MB-435, item "Fc1cc2[nH]ncc2c2c3c(c(-c4cn[nH]c4)nc12)CCCC3" . Result: 3.61

---

system: 786-0 renal; assay: NCI tumour cell line growth inhibition, 48 h
Kindly state TGI for each of the entries shown.

Example entries begin here.
>>> df
                                   molecule       target  outcome_measure  experimental_value
0  COc1ccc(-c2nnc(COc3ccc(NC(=O)Nc4cc(C(F)(F)F)cc(C(F)(F)F)c4)cc3F)o2)cc1  786-0 renal              TGI              4.7 µM
1  COC(=O)C1CCC(=O)N1C(c1ccc(OC)cc1)c1ccc2c(c1)OCO2 (centres undefined)  786-0 renal              TGI            > 100 µM
2  CCCCCCCC(=O)SCC/C=C/[C@@H]1CC(=O)NCc2cc(ccn2)C2=N[C@@](C)(CS2)C(=O)N[C@@H](C(C)C)C(=O)O1  786-0 renal              TGI           > 33.3 µM
3  CCOC(=O)C(=C=C=C(c1ccccc1)c1ccccc1)C(=O)OCC  786-0 renal              TGI               32 µM
4  C=C1C(=O)O[C@H]2[C@H]1CC/C(COC(=O)c1c[nH]c3ccccc13)=C\CC[C@@]1(C)O[C@@H]21  786-0 renal              TGI             1.13 µM
5  CCc1cc(Cc2cc(CC)c(NC(=O)C(=O)Cc3ccccn3)c(CC)c2Cl)c(Cl)c(CC)c1NC(=O)C(=O)Cc1ccccn1  786-0 renal              TGI            > 100 µM
6  Cc1cc(C(=O)CCCCOc2ccc(C3=NCCO3)cc2)c(C)n1C  786-0 renal              TGI            > 100 µM
7  CC(C)[C@H]1COC(=O)N1[C@@H]1C(=O)N([C@@H](CCC(=O)N2CCN(C3CCCC3)CC2)C(=O)N[C@@H]2CCCc3ccccc32)[C@@H]1/C=C/c1cccc(Br)c1  786-0 renal              TGI             4.69 µM
8   CN1CSC(=S)N(c2c3ccccc3nc3ccc(Br)cc23)C1  786-0 renal              TGI             16.6 µM
9  Cn1cnc([N+](=O)[O-])c1S(=O)(=O)Oc1cccc2ccccc12  786-0 renal              TGI             29.3 µM

For the 6 molecules below, give their TGI values.
1. N#CC12C(=O)N=C(N)C1(C#N)C(c1ccco1)NC1=C2CCCC1 (centres undefined)
2. CCCC(=O)OC1CC(n2cc(F)c(=O)[nH]c2=O)OC1COP(=O)(OCC(Cl)(Cl)Cl)OCC(Cl)(Cl)Cl (centres undefined)
3. CCN(CC)CCn1c(=O)c2cccnc2n2c3c(=O)n(C)c(=O)n(C)c3nc12
4. CC(=O)Nc1nc(C#N)[nH]c1C#N
5. CN(C(=O)c1ccc(C(F)(F)F)cc1)c1ccc(Oc2ccc3c(c2)cc(C(=O)N2CCN(Cc4ccc(OC(F)F)cc4)CC2)n3C)nc1
6. CCCCCCN(CCCCCC)C(=O)Cc1c2n(c3ccccc13)Cc1ccccc1-2

1: > 100 µM; 2: > 100 µM; 3: > 100 µM; 4: > 100 µM; 5: > 100 µM; 6: > 100 µM

For the 3 molecules below, give their TGI values.
1. CSc1nsc(-c2ccccc2)[s+]1
2. CN(C)c1ccc(/C=C(\NC(=O)c2ccccc2)c2nc3ncncc3[nH]2)cc1
3. CC(C)=Cc1cc(C(=O)Nc2ccc(Cl)c(Cl)c2)nc(N)n1

> 100 µM
> 100 µM
> 100 µM
